Sourced from patent US20110112158A1

- Test system: glycogen synthase
- ASSAY PROTOCOL: Glycogen Synthase (GS) Assay
- Type: biochemical
- SETUP CONDITIONS: compound concentration needed to give 50% maximum activation
pEC50: −log10 of the molar value.
Classify by measured pEC50: 1 (yes) if it is equal to or exceeds 6, 0 (no) if it is smaller.

INSERT INTO measurements (given_smiles, category) VALUES
  ('Oc1noc2ccc(COc3ccc(-c4cc(F)c(F)cc4F)cc3)cc12', '1 (yes)'),
  ('COCCN(CC(=O)O)c1noc2ccc(COc3ccc(-c4cc(F)c(F)cc4OC)cc3)cc12', '1 (yes)'),
  ('COc1cc(F)c(F)cc1-c1ccc(OCc2ccc3onc(N(C)CC(=O)O)c3c2)cc1', '1 (yes)'),
  ('COc1cc(F)c(F)cc1-c1ccc(OCc2cccc3c(O)noc23)cc1', '1 (yes)'),
  ('COc1cc(F)c(F)cc1-c1ccc(OCc2ccc3onc(OCCC(=O)O)c3c2)cc1', '0 (no)');

###

- Tested on: glycogen synthase
- ASSAY PROTOCOL: Glycogen Synthase (GS) Assay
- Format: biochemical
- SETUP CONDITIONS: compound concentration needed to give 50% maximum activation
pEC50: −log10 of the molar value.
# reported pEC50; entries follow
MEASUREMENT LABEL: pEC50

INSERT INTO results (compound, reading) VALUES
  ('COc1cc(F)c(F)cc1-c1ccc(OCc2ccc3onc(OC(C)(C)C(=O)O)c3c2)cc1', 6.11),
  ('COc1cc(F)c(F)cc1-c1ccc(OCc2ccc3onc(N)c3c2)cc1', 5.83),
  ('COc1cc(F)c(F)cc1-c1ccc(OCc2ccc3onc(OC(C)C(=O)O)c3c2)cc1 (stereo not drawn)', 6.18);
